# ASSAYED_TARGET: Bcl-2-like protein 10 (Homo sapiens) (UniProt Q9HD36)
# EXPERIMENT_DESCRIPTION: displacers of TR3 peptide from Bcl-B, primary screen, selectivity assay for Bfl-1 inhibitor project, biochemical, fluorescence polarization, FITC-TR3 peptide (AID 748);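 also: plate controls were wells without compound for no effect and wells lacking Bcl-B protein for full effect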
# CONDITIONS_USED: FP displacement of FITC-TR3 peptide from Bcl-B; at 20 µM; hits give high values
The campaign covered roughly 96,000 compounds. About 100 (0.1%) were called active. Shown is part of a subset that was picked to be rich in actives. Measured potencies and affinities stand elsewhere.

{"SMILES_STR": "CCn1c(SCC(=O)OC)nc2sc3c(c2c1=O)CCC3", "displacement (%)": 46.6}
{"SMILES_STR": "CCn1c(NN)nc2sc3c(c2c1=O)CCC3", "displacement (%)": -124}
{"SMILES_STR": "O=C(CCc1ccccc1)OCCN1CCOCC1", "displacement (%)": 5.9}
{"SMILES_STR": "COC(=O)CSc1nc2sc3c(c2c(=O)n1C1CCCCC1)CCN(C)C3", "displacement (%)": -62.9}
{"SMILES_STR": "CCCC(=O)Nc1ccc2oc(-c3ccc(OC)c(Br)c3)nc2c1", "displacement (%)": -48.6}
{"SMILES_STR": "CCn1c(SCC(N)=O)nc2sc3c(c2c1=O)CCCC3", "displacement (%)": 1.5}
